Target: CDK19/CycC (Homo sapiens, UniProt Q9BWU1)
Sequence (Q9BWU1 whole entry): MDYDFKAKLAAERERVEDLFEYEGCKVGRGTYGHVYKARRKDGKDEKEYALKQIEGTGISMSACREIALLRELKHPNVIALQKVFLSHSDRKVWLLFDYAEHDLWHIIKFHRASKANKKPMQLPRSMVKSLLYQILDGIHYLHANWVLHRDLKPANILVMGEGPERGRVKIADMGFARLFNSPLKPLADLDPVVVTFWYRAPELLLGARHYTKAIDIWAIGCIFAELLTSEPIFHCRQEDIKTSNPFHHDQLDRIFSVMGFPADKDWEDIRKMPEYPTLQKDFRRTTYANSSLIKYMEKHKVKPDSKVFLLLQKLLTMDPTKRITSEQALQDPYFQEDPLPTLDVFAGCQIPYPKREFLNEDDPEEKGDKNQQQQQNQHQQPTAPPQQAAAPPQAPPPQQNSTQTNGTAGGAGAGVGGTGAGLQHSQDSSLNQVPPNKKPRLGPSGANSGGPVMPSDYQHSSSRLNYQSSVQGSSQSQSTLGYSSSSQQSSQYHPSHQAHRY
Sequence (P24863 whole entry partner): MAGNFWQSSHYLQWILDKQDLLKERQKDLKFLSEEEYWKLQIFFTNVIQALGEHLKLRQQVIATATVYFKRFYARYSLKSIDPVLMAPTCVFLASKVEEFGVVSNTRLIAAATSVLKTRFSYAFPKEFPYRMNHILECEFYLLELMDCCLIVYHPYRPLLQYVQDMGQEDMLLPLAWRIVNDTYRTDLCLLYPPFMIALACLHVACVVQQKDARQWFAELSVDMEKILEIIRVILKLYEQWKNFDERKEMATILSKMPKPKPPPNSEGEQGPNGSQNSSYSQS
Assay: LanthaScreen europium kinase binding assay (FRET displacement), CDK19
Conditions: CDK19/CDK8 selectivity based on IC50 values
Label Yes when CDK19 Selectivity >= 3; otherwise No.

{"compound": "CC(C)Cc1ccc(Nc2ncc(C(F)(F)c3ccncc3)cn2)cc1 [Compound A139]", "assignedCategory": "Yes"}
{"compound": "c1ccc2c(Nc3cnc(Nc4ccc(CC5CC5)cc4)nc3)ccnc2c1 [Compound A43]", "assignedCategory": "Yes"}
{"compound": "CCc1cnccc1Nc1cnc(Nc2ccc(CC(C)C)cc2)nc1 [Compound A51]", "assignedCategory": "Yes"}
{"compound": "FC(F)(F)c1cnccc1Nc1cnc(Nc2ccc(C3CCOCC3)cc2)nc1 [Compound A181]", "assignedCategory": "No"}
{"compound": "Cc1ccc(-c2ccc(Nc3ccc(CC(C)C)cc3)nc2)cc1 [Compound A77]", "assignedCategory": "Yes"}

Does CDK19 Selectivity meet or surpass 3 for Cc1cnccc1Nc1cnc(Nc2ccc(CC(C)C)cc2F)nc1 [Compound A59] ?
No

Proceed to CC(C)Cc1ccc(Nc2ncc(C(=O)c3ccncc3OC3CCCC3)cn2)c(F)c1 [Compound A176]
No

Proceed to FC(F)(F)c1cc(Nc2ncc(Nc3ccncc3)cn2)cc(C(F)(F)F)c1 [Compound A44]
No

From: patent US20240351996A1
